System: Aeromonas hydrophila
procedure summary: MIC against Gram-negative bacteria: Aeromonas hydrophila
Assay type: cell-based
test context: 96-well plate, 5×10^5 CFU/mL, 37° C., 10 h
measurement type: MIC against A. hydrophila (µg/mL)
Respond with the bare value in µg/mL.

{"substance": "PRT456 (DIDECADSEACGEARCKNLPGSYSCLCDEGFAYSSQEKACR; listed as Homo sapiens)", "uom": "µg/mL", "MIC against A. hydrophila": 12.5}
{"substance": "PRT448 (SFRCQCEPGFQLGPNNRSCVDVNE; listed as Homo sapiens)", "uom": "µg/mL", "MIC against A. hydrophila": 50}
{"substance": "PRT576 (CTCNLLGTNPQQCPSPDQCHCDPSSGQCPCLPNVQGPSCDRCAPNFWNLTSGHGCQP; listed as Homo sapiens)", "uom": "µg/mL", "MIC against A. hydrophila": 12.5}

Request the reported MIC against A. hydrophila associated with PRT523 (CSCGRRLCEEMTGQCRCPPRTVRPQCEVCETHSFSFHPMAGCEG; listed as Homo sapiens)
25

// returns reported MIC against A. hydrophila for input PRT518 (CACPLNIPSNNFSPTCHLDRSLGLICDGCPVGYTGPRCERCAEGYFGQPSVPGGSCQP; listed as Homo sapiens)
25

Could you tell me which MIC against A. hydrophila is on file for PRT517 (CQCFGHAESCDDVTGECLNCKDHTGGPYCDKCLPGFYGEPTKGTSEDCQP; listed as Homo sapiens) ?
12.5

Could you tell me which MIC against A. hydrophila is on file for PRT577 (CACHPSRARGPTCNEFTGQCHCRAGFGGRTCSECQELHWGDPGLQCHA; listed as Homo sapiens) ?
25
